# target-system: EphA4 ephrin-binding domain (residues 29-209) (human, UniProt P54764-1 29-209)
# Sequence (P54764 29-209): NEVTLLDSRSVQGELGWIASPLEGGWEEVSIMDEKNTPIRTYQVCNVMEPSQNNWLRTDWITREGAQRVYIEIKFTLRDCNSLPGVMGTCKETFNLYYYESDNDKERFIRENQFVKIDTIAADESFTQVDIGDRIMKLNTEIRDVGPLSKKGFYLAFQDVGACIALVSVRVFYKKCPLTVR
# assay-overview: ITC
Field: Kd. Provide a value for each of the binders that follow.
Answers are plain numbers, in nM.

- binder: "VTMEAINLAFPG [VTM peptide]"
  Kd (nM): 4700

For the binder KYLPYWPVLSSL [KYL peptide] , what Kd is on record?
850
